Measured LD50 at 168 h of individual entries
experiment: Acute toxicity; assay type: in vivo, CFLP mice; conditions: mouse, in vivo, ip; death rate observed for one week; read-out: LD50 i.p.
Just the number please, in mg/kg, no unit attached.

Illustrative cases are given below, each with its answer.
[
  {
    "molecule": "CN1C(=O)CN(C(N)=O)C(c2ccccc2)c2cc(Cl)ccc21 (single isomer, unassigned; (+)) [Example 55]",
    "experimental value": 611
  },
  {
    "molecule": "CNC(=O)N1CC(=O)Nc2ccc(Cl)cc2C1c1ccccc1 (centres unmarked) [Example 16]",
    "experimental value": 800
  },
  {
    "molecule": "CN1C(=O)CN(C=O)C(c2ccccc2)c2cc(Cl)ccc21 (centres unmarked) [Example 33]",
    "experimental value": 688
  },
  {
    "molecule": "CC(NC(=O)N1CC(=O)N(C)c2ccc(Cl)cc2C1c1ccccc1)c1ccccc1 (centres unmarked) [Example 24]",
    "experimental value": 271
  }
]

Query string: Would you kindly share the measured LD50 at 168 h for CC(=O)N1CC(=O)N(C)c2ccc(Cl)cc2C1c1ccccc1 (centres unmarked) [Example 28] ?
Result string: 312

Query string: // query: CCCCNC(=O)N1CC(=O)Nc2ccc([N+](=O)[O-])cc2C1c1ccccc1 (centres unmarked) [Example 18]
Result string: 320

Query string: // query: CNC(=O)N1CC(=O)Nc2ccc([N+](=O)[O-])cc2C1c1ccccc1 (centres unmarked) [Example 14]
Result string: 936

Query string: // query: NC(=O)N1CC(=O)Nc2ccc(Cl)cc2C1c1ccccc1 (centres unmarked) [Example 13]
Result string: 367

* * *

test: Traction test (muscle incoordination and ataxia); parameters: species or system CFLP mice; conditions: mouse, in vivo, po, 1 hour before test; read-out: Traction test ED50
value type: TD50 at 1 h (mg/kg)
Just the number please, in mg/kg, no unit attached.

[
  {
    "compound": "CN1C(=O)CN(C(N)=O)C(c2ccccc2)c2cc(Cl)ccc21 (racemic)",
    "unit abbrev": "mg/kg",
    "TD50 at 1 h": 26.9
  }
]

Query string: Would you kindly share the measured TD50 at 1 h for CNC1=Nc2ccc(Cl)cc2C(c2ccccc2)=[N+]([O-])C1 [Chlorodiazepoxide, reference compound] ?
Result string: 31.2

* * *

experiment: Acute toxicity; assay type: in vivo, CFLP mice; conditions: mouse, in vivo, po; death rate observed for one week; read-out: Acute toxicity (LD50)
Measured LD50 at 168 h of individual entries
Just the number please, in mg/kg, no unit attached.

[
  {
    "compound": "CN1C(=O)CN(C(N)=O)C(c2ccccc2)c2cc(Cl)ccc21 (racemic) [Compound \"A\"]",
    "LD50 at 168 h (mg/kg)": 1680
  }
]

Consider now this further compound.
Query string: Would you kindly share the measured LD50 at 168 h for CNC1=Nc2ccc(Cl)cc2C(c2ccccc2)=[N+]([O-])C1 [Chlorodiazepoxide, reference compound] ?
Result string: 850

* * *

test system: CFLP mice; experiment: Hexobarbital narcosis potentiating effect; assay type: in vivo; conditions: screen test, i.p., 1 hour before hexobarbital 60 mg./kg. into tail vein; change of sleeping period related to controls
Measured Hexobarbital potentiation, % of individual entries
Just the number please, in %, no unit attached.

Illustrative cases are given below, each with its answer.
[
  {
    "molecule": "CN1C(=O)CN(C(=O)c2ccccc2Cl)C(c2ccccc2)c2cc(Cl)ccc21 (stereo not drawn) [Example 31]",
    "target desc": "CFLP mice",
    "Hexobarbital potentiation, % (%)": 85
  },
  {
    "molecule": "CN1C(=O)CN(C(N)=O)C(c2ccccc2)c2cc(Cl)ccc21 (single isomer, unassigned; (-)) [Example 56]",
    "target desc": "CFLP mice",
    "Hexobarbital potentiation, % (%)": 112
  },
  {
    "molecule": "CN1C(=O)CN(C=O)C(c2ccccc2)c2cc(Cl)ccc21 (stereo not drawn) [Example 33]",
    "target desc": "CFLP mice",
    "Hexobarbital potentiation, % (%)": 110
  },
  {
    "molecule": "CCOC(=O)N1CC(=O)Nc2ccc([N+](=O)[O-])cc2C1c1ccccc1 (stereo not drawn) [Example 2]",
    "target desc": "CFLP mice",
    "Hexobarbital potentiation, % (%)": 168
  },
  {
    "molecule": "CNC(=O)N1CC(=O)Nc2ccccc2C1c1ccccc1 (stereo not drawn) [Example 15]",
    "target desc": "CFLP mice",
    "Hexobarbital potentiation, % (%)": 93
  }
]

Query string: Would you kindly share the measured Hexobarbital potentiation, % for CCCCNC(=O)N1CC(=O)Nc2ccc([N+](=O)[O-])cc2C1c1ccccc1 (stereo not drawn) [Example 18] ?
Result string: 77

Query string: // query: CNC(=O)N1CC(=O)Nc2ccc([N+](=O)[O-])cc2C1c1ccccc1 (stereo not drawn) [Example 14]
Result string: 75

Query string: // query: CC(NC(=O)N1CC(=O)N(C)c2ccc(Cl)cc2C1c1ccccc1)c1ccccc1 (stereo not drawn) [Example 24]
Result string: 96
